Quick reference for AUC among some compounds
# procedure_text: AUC in BALB/c mouse at 20 mg/kg, po
# Assay type: ADME, organism-based
# Set-up: dose 20 mg/kg, route oral
# protocol_conditions: plasma

Lab book: AUC of N#C[C@@H]1C[C@H](F)CN1C(=O)[C@@H]1C[C@@H](CC(=O)N2Cc3ccccc3C2)C(=O)N1 noted as 408 ng·h/mL

Lab book: AUC of N#C[C@@H]1C[C@H](F)CN1C(=O)[C@@H]1C[C@@H](CC(=O)N2Cc3ccc(Cl)cc3C2)C(=O)N1 noted as 43 ng·h/mL

Others:
Lab book: AUC of N#C[C@@H]1CC(F)(F)CN1C(=O)[C@@H]1C[C@@H](CC(=O)N2Cc3ccccc3C2)C(=O)N1 noted as 336 ng·h/mL
